Target: human GPBAR1 receptor (Homo sapiens, UniProt Q8TDU6)
Construct: expressed in transfected cells
Sequence (Q8TDU6 whole entry): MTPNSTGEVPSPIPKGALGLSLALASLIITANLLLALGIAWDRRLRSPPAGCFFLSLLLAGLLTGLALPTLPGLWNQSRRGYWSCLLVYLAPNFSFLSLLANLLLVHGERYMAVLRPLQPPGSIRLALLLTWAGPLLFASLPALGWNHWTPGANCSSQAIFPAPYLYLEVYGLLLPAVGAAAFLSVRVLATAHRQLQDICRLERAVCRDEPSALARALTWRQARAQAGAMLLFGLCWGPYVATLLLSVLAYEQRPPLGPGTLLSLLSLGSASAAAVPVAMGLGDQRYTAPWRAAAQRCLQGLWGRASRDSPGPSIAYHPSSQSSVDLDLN
Assay: functional cAMP assay in CHO-dhfr(minus) cells expressing human GPBAR1 receptors
Format: cell-based
Details: human EC50, functional cAMP assay, 30 min at 30° C.
So I've got a bunch of compounds here, and I need their pEC50 values.
One number for each entry, as −log10 of the molar value.

Some compounds with known pEC50 results, for comparison:
## Input Consider the compound shown here: Cc1cc(F)ccc1[C@H](C/C(=N\O)c1ccc(=O)n(C)c1)c1ccc(-c2ccc(S(N)(=O)=O)cc2)cc1 (single isomer, unassigned) What is its recorded pEC50?
## Output 8.05

## Input Suppose we examine the compound Cc1ccccc1[C@H](C/C(=N\O)c1ccnc(C(F)(F)F)c1)c1ccc(-c2ccc(C(=O)O)cc2)cc1 ; what pEC50 value has been reported?
## Output 6.44

## Input Give the measured pEC50 of Cc1cc(/C(C[C@@H](c2ccc(-c3ccc(C(=O)O)cc3)cc2)c2ccc(Cl)cc2C)=N/O)ccn1 .
## Output 7.49

## Input Which value of pEC50 has been reported for Cc1cc(Cl)ccc1C(C/C(=N\O)c1ccc(=O)n(C)c1)c1ccc(Oc2cccc(C(=O)O)c2)c(F)c1 (stereo not drawn) in the records?
## Output 6.98

For the 2 compounds below, give their pEC50 values.
1. Cc1cc(/C(C[C@H](c2ccc(C3CCNCC3)cc2)c2ccc(Cl)cc2C)=N/O)ccn1
2. Cc1ccccc1[C@@H](C/C(=N\O)c1ccc(=O)n(C)c1)c1ccc([C@H]2CC[C@H](C(=O)O)CC2)cc1

## Output
[6.76, 6.21]
